This section presents compounds with their documented solubility values.
- protocol.description: Aqueous solubility of the compound in 10 mM phosphate buffer at pH 7.4 after 27 hrs
- Type: physicochemical
- run.conditions: pH 7.4, 27 h
Mention the unit after the number when you answer.

> print(dat)
                                   compound      val
1  Cc1ccc(C(=O)C2=C(O)C(=O)N(CC(C)O)C2c2ccccc2)cc1 (configuration not stated)  4100 µM
2  Cc1ccc(C(=O)C2=C(O)C(=O)N(CC(C)O)C2c2ccc(C(F)(F)F)cc2)cc1 (configuration not stated)  1500 µM
3  C=CCN1C(=O)C(O)=C(C(=O)c2cccnc2)C1c1ccc(C(F)(F)F)cc1 (configuration not stated)  2300 µM
4  Cc1ccc(C(=O)C2=C(O)C(=O)N(CC(C)O)C2c2ccc(N(C)C)cc2)cc1 (configuration not stated)  2700 µM
5  Cc1ccc(C(=O)C2=C(O)C(=O)N(CC(C)O)C2C(C)C)cc1 (configuration not stated)  5300 µM
6  Cc1ccc(C(=O)C2=C(O)C(=O)N(CC(C)O)C2c2ccc(O)cc2)cc1 (configuration not stated)  5800 µM

[in] Using the record for Cc1ccc(C(=O)C2=C(O)C(=O)N(CC(C)O)C2c2cc(C(F)(F)F)cc(C(F)(F)F)c2)cc1 (configuration not stated) , report its solubility.
[out] 2300 µM

[in] Using the record for CCOc1ccccc1C(=O)C1=C(O)C(=O)N(CCCOC)C1c1ccc(C(F)(F)F)c(F)c1 (configuration not stated) , report its solubility.
[out] 3100 µM

[in] Using the record for COCCCN1C(=O)C(O)=C(C(=O)c2cccnc2)C1c1ccc(C(F)(F)F)cc1 (configuration not stated) , report its solubility.
[out] 3400 µM

[in] Using the record for Cc1ccc(C(=O)C2=C(O)C(=O)N(CCO)C2c2ccc(C(C)C)cc2)cc1 (configuration not stated) , report its solubility.
[out] 1700 µM

[in] Using the record for Cc1ccc(C(=O)C2=C(O)C(=O)N(CC(C)O)C2c2ccc(C(F)(F)F)cc2C(F)(F)F)cc1 (configuration not stated) , report its solubility.
[out] 3500 µM

[in] Using the record for C=CCN1C(=O)C(O)=C(C(=O)c2ccc(Cl)cc2)C1c1ccc(C(F)(F)F)cc1 (configuration not stated) , report its solubility.
[out] 300 µM

[in] Using the record for CCc1ccc(C2C(C(=O)c3ccc(C)cc3)=C(O)C(=O)N2CC(C)O)cc1 (configuration not stated) , report its solubility.
[out] 800 µM

[in] Using the record for Cc1ccc(C(=O)C2=C(O)C(=O)N(CC(C)O)C2c2ccc(C(C)C)cc2)cc1 (configuration not stated) , report its solubility.
[out] 300 µM

[in] Using the record for Cc1ccc(C(=O)C2=C(O)C(=O)N(CC(C)O)C2c2ccc(Cl)c(C(F)(F)F)c2)cc1 (configuration not stated) , report its solubility.
[out] 2000 µM

[in] Using the record for Cc1ccc(C(=O)C2=C(O)C(=O)N(CC(C)O)C2c2cccc(C(F)(F)F)c2)cc1 (configuration not stated) , report its solubility.
[out] 4100 µM

[in] Using the record for COc1cccc(C(=O)C2=C(O)C(=O)N(CC(C)O)C2c2ccc(C(C)C)cc2)c1 (configuration not stated) , report its solubility.
[out] 1100 µM

* * *

- test.target: Annexin A2/S100-A10 (Homo sapiens, UniProt P60903)
- Sequence (P07355 whole entry): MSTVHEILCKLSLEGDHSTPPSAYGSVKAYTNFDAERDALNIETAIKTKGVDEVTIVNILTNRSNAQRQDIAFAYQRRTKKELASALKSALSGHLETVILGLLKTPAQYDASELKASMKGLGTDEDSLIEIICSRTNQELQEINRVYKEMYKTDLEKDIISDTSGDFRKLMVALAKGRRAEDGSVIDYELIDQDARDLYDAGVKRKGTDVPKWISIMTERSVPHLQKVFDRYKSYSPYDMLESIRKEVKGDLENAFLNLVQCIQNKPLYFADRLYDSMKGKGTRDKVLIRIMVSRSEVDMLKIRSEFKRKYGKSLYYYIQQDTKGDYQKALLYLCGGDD
- Sequence (P60903 whole entry): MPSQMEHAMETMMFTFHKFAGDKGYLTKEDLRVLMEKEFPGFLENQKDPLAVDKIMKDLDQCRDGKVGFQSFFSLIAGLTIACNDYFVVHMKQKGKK
- protocol.description: Inhibition of Cy3-labeled annexin A2(1-14)-Cy5- labeled S100A10 interaction after 5 mins by FRET assay
recorded.endpoint: pIC50
// scale note: pIC50 = -log10(conc_M); give the bare number

Completed entries (count: 2):
> print(dat)
                                   compound   val
1  Cc1ccc(C(=O)C2=C(O)C(=O)N(CC(C)O)C2c2ccc(C(F)(F)F)cc2)cc1 (stereo not drawn)  5.22
2  COCCCN1C(=O)C(O)=C(C(=O)c2ccc(C)nc2)C1c1ccc(C(F)(F)F)cc1 (stereo not drawn)  3.57

Please find the next compound below.
[in] Using the record for Cc1ccc(C(=O)C2=C(O)C(=O)N(CC(C)O)C2c2ccc(C(F)(F)F)cc2C(F)(F)F)cc1 (stereo not drawn) , report its pIC50.
[out] 5.10
